Measured values drawn from ChEMBL document CHEMBL2396532 for this set.

Please go through the items and note down their IC50.
- measured target: Tyrosine-protein phosphatase non-receptor type 3 (Homo sapiens, UniProt P26045)
- Sequence (P26045 whole entry): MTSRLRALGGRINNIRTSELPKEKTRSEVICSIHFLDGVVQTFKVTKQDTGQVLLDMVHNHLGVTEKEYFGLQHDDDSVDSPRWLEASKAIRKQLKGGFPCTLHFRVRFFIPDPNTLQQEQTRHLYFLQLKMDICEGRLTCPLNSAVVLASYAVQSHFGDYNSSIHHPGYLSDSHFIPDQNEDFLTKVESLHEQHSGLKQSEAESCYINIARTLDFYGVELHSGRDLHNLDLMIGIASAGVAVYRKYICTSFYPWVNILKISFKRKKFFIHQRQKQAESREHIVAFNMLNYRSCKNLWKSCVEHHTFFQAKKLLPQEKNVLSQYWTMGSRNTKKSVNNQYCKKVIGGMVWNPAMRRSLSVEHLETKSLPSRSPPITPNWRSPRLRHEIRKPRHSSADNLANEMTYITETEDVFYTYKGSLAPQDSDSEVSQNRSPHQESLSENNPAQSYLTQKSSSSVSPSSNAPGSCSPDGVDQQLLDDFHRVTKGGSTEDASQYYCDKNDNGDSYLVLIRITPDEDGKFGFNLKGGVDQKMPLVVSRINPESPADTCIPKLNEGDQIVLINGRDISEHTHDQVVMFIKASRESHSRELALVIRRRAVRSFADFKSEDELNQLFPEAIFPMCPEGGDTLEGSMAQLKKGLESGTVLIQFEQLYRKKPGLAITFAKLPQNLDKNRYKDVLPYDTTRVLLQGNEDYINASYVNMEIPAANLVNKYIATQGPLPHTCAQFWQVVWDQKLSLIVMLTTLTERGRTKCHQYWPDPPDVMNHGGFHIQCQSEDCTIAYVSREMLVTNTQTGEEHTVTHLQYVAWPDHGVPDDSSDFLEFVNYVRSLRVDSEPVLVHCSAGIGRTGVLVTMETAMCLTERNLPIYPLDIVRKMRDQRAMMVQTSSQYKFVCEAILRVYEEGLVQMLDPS
- assay protocol: Inhibition of recombinant PTPH1 (unknown origin) using pNPP as substrate by spectrophotometric analysis
Give the quantity in µM, number only.

Endpoint output: IC50 of O=C(COc1ccc(-c2oc3cc(O)c(C(=O)O)cc3c2C#Cc2cccc(Cl)c2)cc1)NC1CC1 . Value?
13

Endpoint output: IC50 of CCCNC(=O)COc1ccc(-c2oc3cc(O)c(C(=O)O)cc3c2C#Cc2cccc(Cl)c2)cc1 . Value?
1.6

---

- measured target: Tyrosine-protein phosphatase non-receptor type 13 (Homo sapiens)
- Sequence (Q12923 whole entry): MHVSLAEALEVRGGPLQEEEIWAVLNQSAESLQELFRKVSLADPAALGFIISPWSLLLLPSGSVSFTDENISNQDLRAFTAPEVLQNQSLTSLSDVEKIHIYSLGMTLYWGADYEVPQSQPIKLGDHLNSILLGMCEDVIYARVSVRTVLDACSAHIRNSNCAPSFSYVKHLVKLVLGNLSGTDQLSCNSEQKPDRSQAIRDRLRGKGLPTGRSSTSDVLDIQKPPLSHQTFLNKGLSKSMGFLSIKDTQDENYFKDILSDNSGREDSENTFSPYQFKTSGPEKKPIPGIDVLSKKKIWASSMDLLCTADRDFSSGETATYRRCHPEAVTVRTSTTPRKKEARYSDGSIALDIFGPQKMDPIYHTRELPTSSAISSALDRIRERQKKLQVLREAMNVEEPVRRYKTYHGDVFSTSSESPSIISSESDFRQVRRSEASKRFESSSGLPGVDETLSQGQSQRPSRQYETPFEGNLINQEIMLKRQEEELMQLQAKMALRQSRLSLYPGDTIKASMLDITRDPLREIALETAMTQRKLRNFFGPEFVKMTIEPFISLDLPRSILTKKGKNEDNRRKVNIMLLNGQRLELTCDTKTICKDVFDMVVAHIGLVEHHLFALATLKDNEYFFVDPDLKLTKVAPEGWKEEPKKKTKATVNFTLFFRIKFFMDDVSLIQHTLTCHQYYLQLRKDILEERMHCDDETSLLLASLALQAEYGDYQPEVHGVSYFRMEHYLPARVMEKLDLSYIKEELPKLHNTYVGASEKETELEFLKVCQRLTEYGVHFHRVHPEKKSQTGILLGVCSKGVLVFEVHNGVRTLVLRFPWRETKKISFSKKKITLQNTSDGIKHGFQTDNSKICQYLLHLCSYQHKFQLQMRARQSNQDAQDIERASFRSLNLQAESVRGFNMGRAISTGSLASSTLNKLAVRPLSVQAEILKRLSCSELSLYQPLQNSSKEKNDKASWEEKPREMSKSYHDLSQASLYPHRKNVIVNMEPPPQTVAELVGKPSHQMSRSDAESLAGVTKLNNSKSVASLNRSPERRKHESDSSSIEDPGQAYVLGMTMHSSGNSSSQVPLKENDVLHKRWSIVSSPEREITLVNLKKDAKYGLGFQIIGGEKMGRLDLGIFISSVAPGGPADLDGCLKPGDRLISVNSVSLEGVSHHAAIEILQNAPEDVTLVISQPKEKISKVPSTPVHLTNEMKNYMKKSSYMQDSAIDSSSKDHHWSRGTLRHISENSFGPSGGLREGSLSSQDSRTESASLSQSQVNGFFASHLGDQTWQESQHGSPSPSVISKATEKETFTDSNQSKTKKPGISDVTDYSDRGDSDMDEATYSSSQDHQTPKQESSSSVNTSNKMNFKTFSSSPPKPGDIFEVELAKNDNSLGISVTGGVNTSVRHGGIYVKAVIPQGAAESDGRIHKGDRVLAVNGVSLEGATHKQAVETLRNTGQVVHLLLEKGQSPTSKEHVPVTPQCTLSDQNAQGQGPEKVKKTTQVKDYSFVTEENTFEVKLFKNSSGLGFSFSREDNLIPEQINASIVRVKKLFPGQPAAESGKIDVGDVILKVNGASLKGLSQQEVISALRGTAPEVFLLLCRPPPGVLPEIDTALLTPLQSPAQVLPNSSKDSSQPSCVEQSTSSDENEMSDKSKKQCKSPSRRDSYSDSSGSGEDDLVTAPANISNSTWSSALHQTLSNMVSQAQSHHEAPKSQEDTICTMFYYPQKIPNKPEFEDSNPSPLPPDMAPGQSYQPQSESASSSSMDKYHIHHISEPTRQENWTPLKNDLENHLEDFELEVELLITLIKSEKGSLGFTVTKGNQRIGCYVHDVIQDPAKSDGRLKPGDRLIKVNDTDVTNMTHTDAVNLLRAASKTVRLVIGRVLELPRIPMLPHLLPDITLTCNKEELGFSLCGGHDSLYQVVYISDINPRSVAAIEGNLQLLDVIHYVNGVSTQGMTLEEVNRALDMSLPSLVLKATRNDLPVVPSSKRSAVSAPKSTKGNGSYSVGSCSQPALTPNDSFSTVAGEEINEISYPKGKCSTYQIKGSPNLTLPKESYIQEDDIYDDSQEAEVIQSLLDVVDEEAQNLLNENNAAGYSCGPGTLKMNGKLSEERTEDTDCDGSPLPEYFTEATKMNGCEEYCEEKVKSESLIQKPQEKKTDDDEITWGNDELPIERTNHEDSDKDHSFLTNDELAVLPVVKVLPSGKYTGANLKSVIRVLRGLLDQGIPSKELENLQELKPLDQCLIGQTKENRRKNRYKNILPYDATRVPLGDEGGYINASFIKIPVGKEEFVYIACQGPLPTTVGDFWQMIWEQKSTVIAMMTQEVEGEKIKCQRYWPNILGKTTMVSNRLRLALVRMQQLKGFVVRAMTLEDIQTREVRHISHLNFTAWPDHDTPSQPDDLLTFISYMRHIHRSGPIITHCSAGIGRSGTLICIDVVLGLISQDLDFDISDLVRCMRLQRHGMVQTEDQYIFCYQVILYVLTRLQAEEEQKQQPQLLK
endpoint label: IC50 (nM)
Give the quantity in nM, number only.

Endpoint output: IC50 of CCCNC(=O)COc1ccc(-c2oc3cc(O)c(C(=O)O)cc3c2C#Cc2cccc(Cl)c2)cc1 . Value?
390

---

endpoint label: pIC50
Lab note — pIC50 values are minus log10 of concentrations in M.

Form entry - test system: Tyrosine-protein phosphatase non-receptor type 6 (Homo sapiens); read-out: pIC50; molecule: CCCNC(=O)COc1ccc(-c2oc3cc(O)c(C(=O)O)cc3c2C#Cc2cccc(Cl)c2)cc1
Sequence (P29350 whole entry): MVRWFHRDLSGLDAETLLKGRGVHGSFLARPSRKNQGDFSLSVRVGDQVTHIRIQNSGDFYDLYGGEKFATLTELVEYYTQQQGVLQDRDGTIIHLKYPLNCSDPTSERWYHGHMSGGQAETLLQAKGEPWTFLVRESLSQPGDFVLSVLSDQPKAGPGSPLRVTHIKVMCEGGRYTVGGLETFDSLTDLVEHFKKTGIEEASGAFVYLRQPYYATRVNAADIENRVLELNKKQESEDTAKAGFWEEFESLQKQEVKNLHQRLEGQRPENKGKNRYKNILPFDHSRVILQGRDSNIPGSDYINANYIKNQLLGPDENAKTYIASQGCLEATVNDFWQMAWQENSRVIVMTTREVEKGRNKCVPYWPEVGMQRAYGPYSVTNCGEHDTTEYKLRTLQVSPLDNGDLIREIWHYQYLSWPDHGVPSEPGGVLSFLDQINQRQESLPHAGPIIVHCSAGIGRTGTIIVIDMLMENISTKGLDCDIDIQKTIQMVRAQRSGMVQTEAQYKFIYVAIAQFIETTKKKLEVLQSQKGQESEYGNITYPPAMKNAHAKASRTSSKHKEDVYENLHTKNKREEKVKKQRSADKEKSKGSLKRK
6.04

---

Please go through the items and note down their pIC50.
- measured target: Receptor-type tyrosine-protein phosphatase mu (Homo sapiens)
- Sequence (P28827 whole entry): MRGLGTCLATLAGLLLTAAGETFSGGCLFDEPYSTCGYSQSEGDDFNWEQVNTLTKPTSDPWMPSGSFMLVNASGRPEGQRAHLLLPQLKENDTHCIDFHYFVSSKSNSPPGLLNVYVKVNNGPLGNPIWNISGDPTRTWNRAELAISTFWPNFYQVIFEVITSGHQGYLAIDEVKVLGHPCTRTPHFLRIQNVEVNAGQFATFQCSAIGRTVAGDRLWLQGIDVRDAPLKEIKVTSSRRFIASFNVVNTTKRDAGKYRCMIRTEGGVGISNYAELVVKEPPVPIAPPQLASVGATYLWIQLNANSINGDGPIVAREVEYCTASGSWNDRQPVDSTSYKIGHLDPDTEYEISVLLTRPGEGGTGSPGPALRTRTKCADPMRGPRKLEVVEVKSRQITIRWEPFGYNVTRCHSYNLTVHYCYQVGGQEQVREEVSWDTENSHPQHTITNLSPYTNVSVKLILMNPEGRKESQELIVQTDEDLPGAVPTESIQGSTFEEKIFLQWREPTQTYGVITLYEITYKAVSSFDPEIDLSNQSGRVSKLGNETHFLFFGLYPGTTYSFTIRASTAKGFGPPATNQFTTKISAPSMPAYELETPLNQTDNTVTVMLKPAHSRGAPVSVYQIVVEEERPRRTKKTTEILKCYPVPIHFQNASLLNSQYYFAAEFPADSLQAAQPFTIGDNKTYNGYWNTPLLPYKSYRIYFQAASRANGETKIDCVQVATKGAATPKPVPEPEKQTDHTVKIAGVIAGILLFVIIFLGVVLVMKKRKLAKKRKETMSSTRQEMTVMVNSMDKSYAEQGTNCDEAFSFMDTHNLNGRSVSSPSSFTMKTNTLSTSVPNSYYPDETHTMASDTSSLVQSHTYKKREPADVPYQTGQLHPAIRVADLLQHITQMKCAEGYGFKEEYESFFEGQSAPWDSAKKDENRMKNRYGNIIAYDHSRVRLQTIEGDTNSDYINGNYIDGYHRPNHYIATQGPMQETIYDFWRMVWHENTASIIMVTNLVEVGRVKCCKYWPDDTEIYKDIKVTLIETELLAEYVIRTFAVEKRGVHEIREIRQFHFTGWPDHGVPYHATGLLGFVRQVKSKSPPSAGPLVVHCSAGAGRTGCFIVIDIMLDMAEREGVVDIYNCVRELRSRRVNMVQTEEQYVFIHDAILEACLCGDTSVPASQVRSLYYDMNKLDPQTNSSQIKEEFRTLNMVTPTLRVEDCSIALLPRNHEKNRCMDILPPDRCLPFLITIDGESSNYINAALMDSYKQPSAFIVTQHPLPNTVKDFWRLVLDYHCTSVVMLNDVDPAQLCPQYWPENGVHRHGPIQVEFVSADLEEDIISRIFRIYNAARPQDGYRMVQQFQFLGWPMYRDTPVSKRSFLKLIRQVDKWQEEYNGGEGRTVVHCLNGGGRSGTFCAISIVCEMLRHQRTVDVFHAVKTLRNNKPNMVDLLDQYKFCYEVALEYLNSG
- assay protocol: Inhibition of recombinant PTPmu (unknown origin) using pNPP as substrate by spectrophotometric analysis
Lab note — pIC50 values are minus log10 of concentrations in M.

Form entry - test system: Receptor-type tyrosine-protein phosphatase mu (Homo sapiens); read-out: pIC50; molecule: O=C(COc1ccc(-c2oc3cc(O)c(C(=O)O)cc3c2C#Cc2cccc(Cl)c2)cc1)NC1CC1
4.92

Form entry - test system: Receptor-type tyrosine-protein phosphatase mu (Homo sapiens); read-out: pIC50; molecule: CCCNC(=O)COc1ccc(-c2oc3cc(O)c(C(=O)O)cc3c2C#Cc2cccc(Cl)c2)cc1
5.15
